target: FPR1 (Homo sapiens, UniProt P21462); test: Change in calcium activity by peptide, FPR1 activation effect; conditions: calcium activity (Fura-2), graded per Table 3, read-out: EC50 for [Ca^2+] FPR1
Sequence (P21462 whole entry, species assumed): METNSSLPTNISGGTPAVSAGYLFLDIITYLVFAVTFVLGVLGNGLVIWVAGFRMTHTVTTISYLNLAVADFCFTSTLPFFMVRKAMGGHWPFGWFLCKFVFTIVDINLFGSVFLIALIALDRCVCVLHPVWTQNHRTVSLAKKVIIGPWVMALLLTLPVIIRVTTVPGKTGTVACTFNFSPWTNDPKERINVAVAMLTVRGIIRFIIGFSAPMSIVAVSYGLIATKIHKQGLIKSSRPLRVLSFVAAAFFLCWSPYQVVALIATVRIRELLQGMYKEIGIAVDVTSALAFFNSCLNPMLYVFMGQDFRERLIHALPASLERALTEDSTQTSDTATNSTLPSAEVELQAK
pEC50: −log10 of the molar value. Peptide text beside a SMILES is read from it.
In this section, each of the molecules is paired with its reported pEC50.

molecule	measured-target	pEC50
CSCC[C@@H](NC(=O)[C@H](Cc1ccc(O)cc1)NC(=O)[C@H](CCCCN)NC(=O)[C@H](Cc1ccc(O)cc1)NC(=O)[C@H](CCCNC(=N)N)NC(=O)[C@@H](N)Cc1c[nH]c2ccccc12)C(N)=O [Peptide 35] (HELM PEPTIDE1{W.R.Y.K.Y.[dM].[am]}$$$$V2.0)	FPR1 (Homo sapiens, UniProt P21462)	< 5.00
CSCC[C@@H](NC(=O)[C@@H](NC(=O)[C@H](Cc1ccc(O)cc1)NC(=O)[C@H](Cc1ccc(O)cc1)NC(=O)[C@H](CCCCN)NC(=O)[C@H](Cc1c[nH]c2ccccc12)NC(=O)[C@@H](N)CCCCN)C(C)C)C(N)=O [Peptide 96] (HELM PEPTIDE1{K.W.K.Y.Y.V.[dM].[am]}$$$$V2.0)	FPR1 (Homo sapiens, UniProt P21462)	5.00 to 6.00
CC[C@H](C)[C@H](NC(=O)[C@H](CCCNC(=N)N)NC(=O)[C@H](Cc1ccc(O)cc1)NC(=O)[C@H](CCCNC(=N)N)NC(=O)[C@H](Cc1c[nH]c2ccccc12)NC(=O)[C@@H](N)CCCNC(=N)N)C(=O)N[C@H](CCSC)C(N)=O [Peptide 152] (HELM PEPTIDE1{R.W.R.Y.R.I.[dM].[am]}$$$$V2.0)	FPR1 (Homo sapiens, UniProt P21462)	< 5.00

Origin of values: patent US20250361268A1
